assay-target: cyclophilin A (UniProt P62937 1-165)
Sequence (P62937 whole entry): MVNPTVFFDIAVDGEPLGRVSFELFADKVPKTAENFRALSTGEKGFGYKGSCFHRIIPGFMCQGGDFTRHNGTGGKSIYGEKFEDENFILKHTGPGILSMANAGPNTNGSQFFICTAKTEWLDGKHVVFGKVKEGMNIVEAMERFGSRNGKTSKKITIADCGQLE
procedure-text: NMR titration
measurement-label: pKd
Numbers only, as −log10 of the molar value.

Lookup: # get_value(readout='pKd', item= GSFGPDLRAGD [FGP peptide] )
Found: 4.12

Values compiled from paper PMC5336394.
